# system: Gal(b1-3)Gal(b1-4)GlcNAc(b1-2)Man(a1-3)[Gal(b1-3)Gal(b1-4)GlcNAc(b1-2)Man(a1-6)]Man(b1-4)GlcNAc(b1-4)GlcNAc
# protocol: glycan array binding signal (z-score within array); higher = stronger binding
# run parameters: glycan notation: IUPAC condensed, linker removed
This excerpt belongs to a sample that is enriched for the strongest signals.
Examples of binders with documented glycan array binding signal (z-score) follow.
API note: the answer field is a bare number with no unit suffix.

Worked examples, 3 binders total:
{"columns": ["binder", "glycan array binding signal (z-score)"],
 "data": [
  ["Gal 10 (Homo sapiens), Q05315 (protein) MSLLPVPYTEAASLSTGSTVTIKGRPLVCFLNEPYLQVDFHTEMKEESDIVFHFQVCFGRRVVMNSREYGAWKQQVESKNMPFQDGQEFELSISVLPDKYQVMVNGQSSYTFDHRIKPEAVKMVQVWRDISLTKFNVSYLKR", -0.754],
  ["Calsepa (Calystegia sepium), P93114 (protein) MAVPMDTISGPWGNNGGNFWSFRPVNKINQIVISYGGGGNNPIALTFSSTKADGSKDTITVGGGGPDSITGTEMVNIGTDEYLTGISGTFGIYLDNNVLRSITFTTNLKAHGPYGQKVGTPFSSANVVGNEIVGFLGRSGYYVDAIGTYNRHK", 3.79],
  ["SEX4 (Arabidopsis thaliana), Q944A8 (protein) TQAMGAVLTYRHELGMNYNFIRPDLIVGSCLQTPEDVDKLRKIGVKTIFCLQQDPDLEYFGVDISSIQAYAKKYSDIQHIRCEIRDFDAFDLRMRLPAVVGTLYKAVKRNGGVTYVHCTAGMGRAPAVALTYMFWVQGYKLMEAHKLLMSKRSCFPKLDAIRNATIDILTGLKRKTVTLTLKDKGFSRVEISGLDIGWGQRIPLTLGKGTGFWILKRELPEGQFEYKYIIDGEWTHNEAEPFIGPNKDGHTNNYAKVVDDPTSVDGTTRERLSSEDPELLEEERSKLIQFLETCSEAEV", -0.329]
]}

Determine from records and report glycan array binding signal (z-score) for Morniga (Morus nigra) (protein) MAGTSTNTQTTGTSQTVEVGLWGGPGGNAWDDGSYTGIREINLSHGDAIGAFSVIYDLNGQPFTGPTHPGNEPSFKTVKITLDFPNEFLVSVSGYTGVLPRLATGKDVIRSLTFKTNKKTYGPYGKEEGTPFSLPIENGLIVGFKGRSGFVVDAIGVHLS
4.04
